All figures here come from ChEMBL document CHEMBL1212855.

Provide the recorded pIC50 for the entries that follow.
system: Plasmodium falciparum; assay: Antiplasmodial activity against Plasmodium falciparum FcB1/columbia infected in human erythrocytes; format: functional, organism-based
Scale note: pIC50 = -log10(concentration in M).

Print Plasmodium falciparum pIC50 for COc1cc2c(c(OC)c1)C(=O)/C(=C/c1c(F)cccc1Cl)N2 .
5.05

Print Plasmodium falciparum pIC50 for CCc1ccccc1/C=C1\Oc2cc(O)cc(O)c2C1=O .
3.95

Print Plasmodium falciparum pIC50 for COc1cc2c(c(OC)c1)C(=O)/C(=C/c1ccc(N(C)C)cc1)N2 .
5.43

Print Plasmodium falciparum pIC50 for COc1cc(OC)c(/C=C2\Nc3cc(OC)cc(OC)c3C2=O)c(OC)c1 .
5.72

Print Plasmodium falciparum pIC50 for COc1cc2c(c(OC)c1)C(=O)/C(=C/c1ccc(N3CCOCC3)cc1)N2 .
5.05

Print Plasmodium falciparum pIC50 for COc1cc2c(c(OC)c1)C(=O)/C(=C/c1ccc(SC)cc1)N2 .
5.17

Print Plasmodium falciparum pIC50 for COc1cc(OC)c2c(c1)O/C(=C\c1ccc(Br)cc1)C2=O .
4.30

Print Plasmodium falciparum pIC50 for COc1cc(OC)c2c(c1)O/C(=C\c1ccccc1)C2=O .
4.22

Print Plasmodium falciparum pIC50 for C#Cc1ccc(/C=C2\Nc3cc(OC)cc(OC)c3C2=O)cc1 .
4.87

Print Plasmodium falciparum pIC50 for COc1ccc(/C=C2\Nc3cc(OC)cc(OC)c3C2=O)c(OC)c1 .
5.30

Print Plasmodium falciparum pIC50 for COc1cc2c(c(OC)c1)C(=O)/C(=C/c1cc(C)c(C)cc1C)N2 .
5.25
